These entries and their values trace back to patent US20240360227A1.

target desc: Recombinant human his-tagged IGF R extracellular domain protein (human) (UniProt P08069)
protocol notes: SPR, Ab captured via anti-huIgG Fc, dissociation at pH 6
Hi! Just check whether kon is below 90000 M⁻¹ s⁻¹. Below gives yes, equal or above gives no.

binder: VRDN-02100 (antibody, human IgG1, kappa, V domains shown) VH: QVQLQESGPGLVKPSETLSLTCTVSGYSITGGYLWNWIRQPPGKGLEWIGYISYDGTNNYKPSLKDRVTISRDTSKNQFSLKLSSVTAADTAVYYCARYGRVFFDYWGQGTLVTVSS VL: DIVMTQSPLSLPVTPGEPASISCRSSQSIVHSNGNTYLQWYLQKPGQSPQLLIYKVSNRLYGVPDRFSGSGSGTDFTLKISRVEAEDVGVYYCFQGSHVPWTFGQGTKVEIKR
qualitative label: yes
//
binder: VRDN-02025 (antibody, V domains shown) VH: QVQLQESGPGLVKPSETLSLTCTVSGYSITGGYLWNWIRQPPGKGLEWIGYISYDGTNNYKPSLKDRVTISRDTSKNQFSLKLSSVTAADTAVYYCARYGRVHFDYWGQGTLVTVSS VL: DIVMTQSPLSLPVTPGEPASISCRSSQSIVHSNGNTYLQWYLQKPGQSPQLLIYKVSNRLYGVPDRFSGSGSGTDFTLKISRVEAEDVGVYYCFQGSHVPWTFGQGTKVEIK
qualitative label: yes
//
binder: VRDN-02028 (antibody, V domains shown) VH: QVQLQESGPGLVKPSETLSLTCTVSGYSITGGYLWNWIRQPPGKGLEWIGYISYDGTNNYKPSLKDRVTISRDTSKNQFSLKLSSVTAADTAVYYCARYGRVFFDHWGQGTLVTVSS VL: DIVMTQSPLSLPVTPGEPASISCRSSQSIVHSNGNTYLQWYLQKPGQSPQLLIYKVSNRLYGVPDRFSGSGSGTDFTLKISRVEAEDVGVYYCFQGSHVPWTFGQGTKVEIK
qualitative label: no

# evaluate next
For VRDN-02036 (antibody, V domains shown) VH: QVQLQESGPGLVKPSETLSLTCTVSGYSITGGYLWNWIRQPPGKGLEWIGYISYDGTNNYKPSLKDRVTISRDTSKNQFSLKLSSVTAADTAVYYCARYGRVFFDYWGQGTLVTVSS VL: DIVMTQSPLSLPVTPGEPASISCRSSQSIVHHNGNTYLQWYLQKPGQSPQLLIYKVSNRLYGVPDRFSGSGSGTDFTLKISRVEAEDVGVYYCFQGSHVPWTFGQGTKVEIK , is the recorded kon below the cut-off of 90000 M⁻¹ s⁻¹?
no
